Reported values of pKd for individual entries
Assayed Target: T1, human PD-1 protein (hPD-1) on cell surface of 293T-PD-1 cells (human, UniProt Q15116 25-287)
T1 construct: Human PD-1 expressed in HEK293T cells, either by lentiviral transduction or by the pCMV6-ENTRY PDCD1 cDNA RC210364; also called PDCD1 (RC210364) in HEK293T cells
T1 sequence (Q15116 25-287 limits assumed): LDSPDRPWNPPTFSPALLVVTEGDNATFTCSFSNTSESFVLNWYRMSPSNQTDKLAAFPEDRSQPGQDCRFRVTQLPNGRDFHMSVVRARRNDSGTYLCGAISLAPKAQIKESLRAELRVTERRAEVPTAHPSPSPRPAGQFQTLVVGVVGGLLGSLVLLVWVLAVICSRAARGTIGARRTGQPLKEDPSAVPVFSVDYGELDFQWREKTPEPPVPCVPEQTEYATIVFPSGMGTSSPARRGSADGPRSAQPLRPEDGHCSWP
Test Description: flow cytometry on 293T-PD-1 cells
pKd: −log10 of the molar value.
Property: pKd

| Binder | Recorded Measurement |
| --- | --- |
| F02 anti-PD-1 antibody (antibody, V domains shown, Mouse monoclonal antibody from hybridoma clone #11, detected with anti-mouse IgG F(ab')2; Only the variable domains are tied to F02; also called anti-PD-1 antibody from hybridoma clone #11; clone #11) VH: QQPGAELVKPGASVKLSCRASGYTFTNYYLYWVKQRPGQGLEWIGGINPSNGGTNFNEKFRGKATLTVDKSSSTAYMQLSSLTSEDSAVYFCTRRDYNYDGGFDYWGQGSTLTVSS VL: DIVLTQSPASLAVSLGQRATISCRASKSVSTSGFNYMHWYQQKPGQPPKLLIYLASNLDSGVPARFSGSGSGTDFTLNIHPVEEEDAATYYCQHGRELPLTFGAGTKLELRR | 10.15 |
| Ab7 anti-PD-1 antibody (antibody, V domains shown, Humanized antibody, detected with anti-human IgG Fc) VH: QVQLQQSGAEVKKPGSSVKVSCRASGYTFTNYYLYWVRQAPGQGLEWIGGINPSNGGTNFNEKFRGRVTITADESSTTAYMELSSLRSEDTAFYFCTRRDYNYDGGFDYWGQGTTVTVSS VL: DIVMTQSPSSLSASVGDRVTITCRASKSVSTSGFNYMHWYQQTPGKAPKLLIYLASNLDSGVPARFSGSGSGTDFTFTISSLQEEDIATYYCFHGRELPLTFGQGTKLQITR | 8.64 |
| Ab8 anti-PD-1 antibody (antibody, V domains shown, Humanized antibody, detected with anti-human IgG Fc) VH: EVQLQESGAEVKKPGSSVKVSCKASGYTFTNYYLYWVRQAPGQGLEWMGGINPSNGGTNFNEKFRGRVTITADESTSTAYMELSSLRSEDTAVYYCARRDYNYDGGFDYWGQGTTVTVSS VL: DIVMTQSPDSLAVSLGERATINCRASKSVSTSGFNYMHWYQQKPGQPPKLLIYLASNLDSGVPDRFSGSGSGTDFTLTIRPLQAEDVAVYYCQHGRELPLTFGQGTKLEIK | 9.19 |
| Ab5 anti-PD-1 antibody (antibody, V domains shown, Humanized antibody, detected with anti-human IgG Fc) VH: QVQLQQSGAEVKKPGSSVKVSCKASGYTFTNYYLYWVRQAPGQGLEWIGGINPSNGGTNFNEKFRGRVTITADESSTTAYMELSSLRSEDTAFYFCTRRDYNYDGGFDYWGQGTTVTVSS VL: DIVMTQSPSSLSASVGDRVTITCRASKSVSTSGFNYMHWYQQTPGKAPKLLIYLASNLDSGVPARFSGSGSGTDFTFTISSLQEEDIATYYCFHGRELPLTFGQGTKLQITR | 8.43 |
| h11 anti-PD-1 antibody (antibody, V domains shown, Humanized antibody derived from F02, detected with anti-human IgG Fc; also called hl 1) VH: QVQLVQSGAEVKKPGASVKVSCKASGYTFTNYYMYWVRQAPGQGLEWIGGINPSNGGTNFNEKFKNKATMTVDKSTSTAYMELSSLRSEDTAVYYCTRRDYNYDGGFDYWGQGTLVTVSS VL: DIVLTQSPATLSLSPGERATLSCRASKSVSTSGFNYMHWYQQKPGQAPRLLIFLASNLASGVPARFSGSGSGTDFTLTISSLEPEDFAVYYCQHGRELPLTFGQGTKLEI | 9.26 |
| Ab4 anti-PD-1 antibody (antibody, V domains shown, Humanized antibody, detected with anti-human IgG Fc) VH: QVQLQQSGAEVKKPGSSVKVSCKASGYTFTNYYLYWVRQAPGQGLEWIGGINPSNGGTNFNEKFRGRVTITADESSTTAYMELSSLRSEDTAFYFCTRRDYNYDGGFDYWGQGTTVTVSS VL: DIQMTQSPSSLSASVGDRVTITCRASKSVSTSGFNYMHWYQQTPGKAPKLLIYLASNLDSGVPARFSGSGSGTDFTFTISSLQEEDIATYYCFHGRELPLTFGQGTKLQITR | 7.39 |
| Ab2 anti-PD-1 antibody (antibody, V domains shown, Humanized antibody, detected with anti-human IgG Fc) VH: QVQLQQSGAEVKKPGSSVKVSCKASGYTFTNYYLYWVRQAPGQGLEWIGGINPSNGGTNFNEKFRGRVTITADESSTTAYMELSSLRSEDTAFYFCTRRDYNYDGGFDYWGQGTTVTVSS VL: DIQMTQSPSSLSASVGDRVTITCRASKSVSTSGFNYMHWYQQTPGKAPKLLIYLASNLDSGVPSRFSGSGSGTDFTFTISSLQPEDIATYYCFHGRELPLTFGQGTKLQITR | 8.49 |
